Cited source: patent US20240300937A1

MEASURED ON: CDK4/Cyclin D1 (Homo sapiens (Human))
ASSAY REMARKS: CDK4/Cyclin D1 kinase TR-FRET inhibition assay
DETAILS: 1 mM ATP, Rb (Ser780)-biotin substrate, read-out: CDK4D1 IC50
ASSAY ENDPOINT: IC50 (nM)

SMI: CC(C)c1c(CN2CCOCC23CC3)cnc2ccc(-c3nc(N[C@@H]4CCOC[C@H]4O)ncc3F)cc12
RESULT: 14

SMI: CC(C)c1c(CNC2CC(F)(F)C2)cnc2ccc(-c3nc(N[C@@H]4CCOC[C@H]4O)ncc3F)cc12
RESULT: 12

SMI: CC(C)c1c(CN2[C@H](C)COC[C@@H]2C)cnc2ccc(-c3nc(N[C@@H]4CCOC[C@H]4O)ncc3F)cc12
RESULT: 8.7

SMI: CC(C)c1ccnc2ccc(-c3nc(N[C@@H]4CCOC[C@H]4O)ncc3F)cc12
RESULT: 14

SMI: CC(C)c1c(CN2C[C@H]3C[C@@H]2CO3)cnc2ccc(-c3nc(N[C@@H]4CCOC[C@H]4O)ncc3F)cc12
RESULT: 14

SMI: CC(C)c1c(CN2CCOC[C@H]2C)cnc2ccc(-c3nc(N[C@@H]4CCOC[C@H]4O)ncc3F)cc12
RESULT: 14

SMI: CC(C)c1c(CN[C@@H]2CCCOC2)cnc2ccc(-c3nc(N[C@@H]4CCOC[C@H]4O)ncc3F)cc12
RESULT: 11

----------
MEASURED ON: CDK4/Cyclin D1 (Homo sapiens (Human), UniProt P11802)
Sequence (P11802 whole entry): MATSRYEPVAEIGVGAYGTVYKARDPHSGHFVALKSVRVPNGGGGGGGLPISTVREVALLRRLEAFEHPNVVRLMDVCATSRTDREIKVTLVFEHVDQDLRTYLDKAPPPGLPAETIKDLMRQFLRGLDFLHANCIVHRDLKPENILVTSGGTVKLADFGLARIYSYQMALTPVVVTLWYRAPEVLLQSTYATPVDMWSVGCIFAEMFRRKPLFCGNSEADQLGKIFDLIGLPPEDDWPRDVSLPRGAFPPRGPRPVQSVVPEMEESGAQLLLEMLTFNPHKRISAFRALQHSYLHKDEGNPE
Sequence (P24385 whole entry partner): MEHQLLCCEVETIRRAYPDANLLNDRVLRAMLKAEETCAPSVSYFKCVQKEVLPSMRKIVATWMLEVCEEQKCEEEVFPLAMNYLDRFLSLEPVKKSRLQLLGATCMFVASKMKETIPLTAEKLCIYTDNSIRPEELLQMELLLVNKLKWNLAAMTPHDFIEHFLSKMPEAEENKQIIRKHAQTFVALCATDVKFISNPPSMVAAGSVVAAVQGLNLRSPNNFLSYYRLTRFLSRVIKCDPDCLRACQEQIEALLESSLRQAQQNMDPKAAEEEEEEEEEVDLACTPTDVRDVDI
ASSAY REMARKS: CDK4/Cyclin D1 kinase TR-FRET inhibition assay
DETAILS: 1 mM ATP, Rb (Ser780)-biotin substrate, read-out: CDK4D1 IC50
ASSAY ENDPOINT: IC50 (nM)

COMPOUND: CC(C)c1c(CN[C@H]2CCOC2)cnc2ccc(-c3nc(N[C@@H]4CCOC[C@H]4O)ncc3F)cc12 [Example 32]
UNIT STRING: nM
IC50: 11

(1) CC(C)c1c(CNC2CCOCC2)cnc2ccc(-c3nc(N[C@@H]4CCOC[C@H]4O)ncc3F)cc12
(2) CC(C)c1c([C@@H](C)O)cnc2ccc(-c3nc(N[C@@H]4CCOC[C@H]4O)ncc3F)cc12
Field: lower IC50 | Options: 1 / 2 Please indicate the selected item by its label.
1
